These data points were gathered from ChEMBL document CHEMBL1201862.

- Test system: CCRF-CEM
- Procedure text: NCI tumour cell line growth inhibition, 48 h
Activity calls are given as the source filed them. No stated cut-off is given here; in the data, active = GI50 up to about 1.1 µM and inactive = higher.
API: response.call in active, inactive

Please review the entries below; each comes with its answer.
NCCCCNCCCN1CC1 :: active
COc1cc(C2C3=C(COC3=O)Oc3cc4c(cc32)OCO4)cc(OC)c1O (stereo unspecified) :: active
O=C1/C(=C/c2ccc([N+](=O)[O-])cc2)Oc2cc(O)ccc21 :: inactive
O=[S@@]1Nc2ccc(Br)cc2S1 :: inactive
Clc1ccc2c(NCCCC/N=C/c3ccccc3)ccnc2c1 :: inactive

Please examine the following record next.
-- ask State the result this test recorded for Cc1cc(N(CCC#N)CCC#N)ccc1C(/N=N/c1ccc(Cl)cc1)=N\NC(=O)c1cc(Cl)ccc1O .
-- reply inactive
